Biological target: T1, human GLP-1 receptor (human, UniProt P43220 24-463)
T1 construct: whole, on cells
Experiment: competitive binding (SPA), displacement of 125I-GLP-1(7-36)NH2 from membranes with human GLP-1 receptor, low HSA
Description: 1. For the receptor binding assay in the presence of low HSA (0.005% (w/v)) 50 μl of the assay buffer was added to each well of an assay plate. Assay continued with step 3. 2. For the receptor binding assay in the presence of high HSA (2% (w/v)) 50 μl of the 8% (w/v) albumin stock was added to each well of an assay plate. Assay continued with step 3. 3. […] 4. […] The assay plate was read in a Packard TopCount NXT instrument. Individual replicates were analysed using non-linear regression in GraphPad Prism.
Starred links: 1 amine or outer side, 2 acyl side, 3 side chain; linkers in the order of their positions; H or OH if unused. Non-standard residues stand in square brackets, D forms with d. Groups on a side chain read outwards from the residue. No end group written: not given here. *: point of attachment. Undecanoyl(11-OPh(4-COOH)) = O=C(O)c1ccc(OCCCCCCCCCCC(=O)*)cc1; Decanoyl(10-(4-HOOC-PhO)) = O=C(O)c1ccc(OCCCCCCCCCC(=O)*)cc1; Decanoyl(10-O(3-COOH-Ph)) = O=C(O)c1cccc(OCCCCCCCCCC(=O)*)c1; γGlu = O=C(O)[C@H](CCC(=O)[*:2])N[*:1]; C14 diacid = O=C(O)CCCCCCCCCCCCC(=O)*; AEEA = NCCOCCOCC(=O)O; Aib = CC(C)(N)C(=O)O
Measurement kind: log10 IC50 (log10 of the value in pM)
Plainly stated, the numbers are log10 of IC50 given in pM.

Past entries and their recorded results:
>  <Binder>
HWEGTFTSDVSSYLEGQAAK([AEEA-AEEA-γGlu-Decanoyl(10-(4-HOOC-PhO))])EFIAWLVRGRK([AEEA-AEEA-γGlu-Decanoyl(10-(4-HOOC-PhO))])

>  <log10 IC50>
3.79

$$$$
>  <Binder>
HWEGTFTSDVSSYLEGQAAKEFIAWLVKGRG (also called 8W GLP-1(7-37)) [[Trp8]-GLP-1-(7-37)-peptide]

>  <log10 IC50>
2.83

$$$$
>  <Binder>
HPEGTFTSDVSSYLEEQAAREFIAWLVKGRG [[Pro8,Glu22,Arg26]-GLP-1-(7-37)-peptide]

>  <log10 IC50>
1.88

$$$$

log10 IC50 for H[Aib]EGTFTSDVSSYLEEQAAREFIAWLVRGRPK (also: Lys32 acylated as, structure not given here) [Comparative Example 11A (Example 10 of WO 2016/083499)] ?
2.60

And what about the binder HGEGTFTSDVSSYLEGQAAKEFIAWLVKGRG [[Gly8]-GLP-1-(7-37)-peptide] ?
3.42

And what about the binder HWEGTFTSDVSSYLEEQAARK([AEEA-AEEA-γGlu-Decanoyl(10-(4-HOOC-PhO))])FIEWLVRGK([AEEA-AEEA-γGlu-Decanoyl(10-(4-HOOC-PhO))])GEG ?
3.01

And what about the binder HWEGTFTSDVSSYLEEQAAREFIAWLVRGK([AEEA-AEEA-γGlu-Undecanoyl(11-OPh(4-COOH))])K([AEEA-AEEA-γGlu-Undecanoyl(11-OPh(4-COOH))]) ?
2.73

And what about the binder HWEGTFTSDVSSYLEEQAAREFIAWLVRGK([AEEA-AEEA-γGlu-Decanoyl(10-O(3-COOH-Ph))])K([AEEA-AEEA-γGlu-Decanoyl(10-O(3-COOH-Ph))]) ?
2.61

And what about the binder H[Aib]EGTFTSDVSSYLEEQAAREFIAWLVRGRGKGGSK (also: the two extension Lys residues acylated as in the compound) [Comparative Example 9A (Example 3 of WO 2015/000942)] ?
3.02

And what about the binder HWEGTFTSDVSSYLEEQAAREFIAWLVRGK([AEEA-AEEA-AEEA-AEEA-γGlu-C14 diacid])K([AEEA-AEEA-AEEA-AEEA-γGlu-C14 diacid]) ?
2.74

And what about the binder H[Aib]EGTFTSDVSSYLEEQAARKFIEWLVRGKGEG (not fully specified (residues 21, 30); also: Lys21 and Lys30 acylated as, structure not given here) [Comparative Example 3A (Example 31 of WO 2012/140117)] ?
2.41
